All values here come from patent US10941182.

Molecular target: T1, rat APJ receptor (rat, UniProt Q9JHG3 1-377)
T1 sequence (looked up): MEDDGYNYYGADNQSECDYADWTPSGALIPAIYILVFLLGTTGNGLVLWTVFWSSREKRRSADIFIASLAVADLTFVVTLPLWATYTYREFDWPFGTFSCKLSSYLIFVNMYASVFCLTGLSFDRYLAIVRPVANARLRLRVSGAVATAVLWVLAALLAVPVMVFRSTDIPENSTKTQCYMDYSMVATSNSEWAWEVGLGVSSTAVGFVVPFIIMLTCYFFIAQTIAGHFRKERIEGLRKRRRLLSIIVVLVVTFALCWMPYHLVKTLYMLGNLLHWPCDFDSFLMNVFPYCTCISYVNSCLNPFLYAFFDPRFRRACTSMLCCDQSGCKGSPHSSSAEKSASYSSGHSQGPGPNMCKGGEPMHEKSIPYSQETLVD
Assay: cell-based or functional assay
Starred links: 1 amine or outer side, 2 acyl side, 3 side chain; linkers in the order of their positions; H or OH if unused. Non-standard residues stand in square brackets, D forms with d. Primed or numbered codes have the meaning given here. No end group written: not given here. *: point of attachment. Atz = 3-(1,2,3-triazol-4-yl)alanine, O=C([C@H](Cc1c[nH]nn1)N[*:1])[*:2]; dBip = N[C@H](Cc1ccc(-c2ccccc2)cc1)C(=O)O; BhPhe = source's own code, no definition; Oic = O=C(O)[C@@H]1C[C@@H]2CCCC[C@@H]2N1; Phe(4-Cl) = N[C@@H](Cc1ccc(Cl)cc1)C(=O)O; Heptadecanoyl = CCCCCCCCCCCCCCCCC(=O)*; Phe(4-I) = N[C@@H](Cc1ccc(I)cc1)C(=O)O; γGlu = O=C(O)[C@H](CCC(=O)[*:2])N[*:1]; 2Nal = N[C@@H](Cc1ccc2ccccc2c1)C(=O)O; d1Nal = N[C@H](Cc1cccc2ccccc12)C(=O)O; NMeR = CN[C@@H](CCCNC(=N)N)C(=O)O; Tridecanoyl = CCCCCCCCCCCCC(=O)*; hArg = N=C(N)NCCCC[C@H](N)C(=O)O; Cha = N[C@@H](CC1CCCCC1)C(=O)O; β3hP = O=C(O)C[C@@H]1CCCN1; code O = not defined here; β3hS = N[C@@H](CO)CC(=O)O; Nle = CCCC[C@H](N)C(=O)O; Orn = NCCC[C@H](N)C(=O)O; Pip′ = not defined here; AEEA = NCCOCCOCC(=O)O; Nlys = NCCCCNCC(=O)O; BLeu = β-leucine
Some binders, each annotated with its measured EC50 Rat APJ Receptor.
// note: answer is a bare numeric in nM

Below are worked cases with known answers.
# EC50 Rat APJ Receptor of [Orn]F[hArg][hArg]Q[hArg]P[hArg][Cha][β3hS]HKG[Oic][Nle]P[Phe(4-Cl)] [apelin polypeptide SEQ ID NO: 698] = 0.734

# EC50 Rat APJ Receptor of Tridecanoyl-[γGlu][AEEA][AEEA][hArg][dQ][hArg]P[dR][BLeu]SHKG[Oic][Phe(4-I)]P[dBip]-OH [apelin polypeptide SEQ ID NO: 180] = 27.3

Further cases:
# EC50 Rat APJ Receptor of Ac-[Atz](20K‑mPEG)LRP[hArg][Cha]SHKG[Oic][Nle]P[Phe(4-Cl)]-OH [apelin polypeptide SEQ ID NO: 106] = 47.3

# EC50 Rat APJ Receptor of [Orn]F[hArg][hArg]Q[hArg]P[hArg][Cha]SHKG[Oic][Nle][d1Nal] [apelin polypeptide SEQ ID NO: 712] = 0.821

# EC50 Rat APJ Receptor of [code O][BhPhe][hArg][hArg]Q[hArg]P[hArg][Cha]SHKG[Oic][Nle]P[Phe(4-Cl)] (reading uncertain; also: printed as O[BhPhe][hArg][hArg]Q[hArg]P[hArg][Cha]SHKG[Oic][Nle]P[4-Cl-F]) [apelin polypeptide SEQ ID NO: 686] = 0.188

# EC50 Rat APJ Receptor of Ac-[Orn]F[hArg][hArg]QRP[hArg][Cha]SHKGP[Nle][2Nal]-OH (SMILES CCCC[C@H](NC(=O)[C@@H]1CCCN1C(=O)CNC(=O)[C@H](CCCCN)NC(=O)[C@H](Cc1c[nH]cn1)NC(=O)[C@H](CO)NC(=O)[C@H](CC1CCCCC1)NC(=O)[C@H](CCCCNC(=N)N)NC(=O)[C@@H]1CCCN1C(=O)[C@H](CCCNC(=N)N)NC(=O)[C@H](CCC(N)=O)NC(=O)[C@H](CCCCNC(=N)N)NC(=O)[C@H](CCCCNC(=N)N)NC(=O)[C@H](Cc1ccccc1)NC(=O)[C@H](CCCN)NC(C)=O)C(=O)N[C@@H](Cc1ccc2ccccc2c1)C(=O)O) [apelin polypeptide SEQ ID NO: 49] = 0.291

# EC50 Rat APJ Receptor of [Orn]F[hArg][hArg]Q[hArg]P[hArg][Cha]SHKG[Oic][Nle][β3hP][Phe(4-Cl)] [apelin polypeptide SEQ ID NO: 709] = 0.862

# EC50 Rat APJ Receptor of Heptadecanoyl-[γGlu][AEEA][AEEA][hArg]Q[dR]P[NMeR][Cha]SHKG[Oic][Nle][Pip′][Phe(4-Cl)]-OH [apelin polypeptide SEQ ID NO: 239] = 8.61

# EC50 Rat APJ Receptor of Ac-[Orn]F[hArg][hArg]Q[hArg]P[hArg][Cha]SH[Nlys]G[Oic][Nle]P[Phe(4-Cl)]-OH [apelin polypeptide SEQ ID NO: 32] = 1.51
